# credit: paper PMC4034419

- target_or_test_system: T1, Pfu-Pol M247R/L381R (Pyrococcus furiosus, UniProt P61875 1-775, M247R;L381R)
- T1 sequence: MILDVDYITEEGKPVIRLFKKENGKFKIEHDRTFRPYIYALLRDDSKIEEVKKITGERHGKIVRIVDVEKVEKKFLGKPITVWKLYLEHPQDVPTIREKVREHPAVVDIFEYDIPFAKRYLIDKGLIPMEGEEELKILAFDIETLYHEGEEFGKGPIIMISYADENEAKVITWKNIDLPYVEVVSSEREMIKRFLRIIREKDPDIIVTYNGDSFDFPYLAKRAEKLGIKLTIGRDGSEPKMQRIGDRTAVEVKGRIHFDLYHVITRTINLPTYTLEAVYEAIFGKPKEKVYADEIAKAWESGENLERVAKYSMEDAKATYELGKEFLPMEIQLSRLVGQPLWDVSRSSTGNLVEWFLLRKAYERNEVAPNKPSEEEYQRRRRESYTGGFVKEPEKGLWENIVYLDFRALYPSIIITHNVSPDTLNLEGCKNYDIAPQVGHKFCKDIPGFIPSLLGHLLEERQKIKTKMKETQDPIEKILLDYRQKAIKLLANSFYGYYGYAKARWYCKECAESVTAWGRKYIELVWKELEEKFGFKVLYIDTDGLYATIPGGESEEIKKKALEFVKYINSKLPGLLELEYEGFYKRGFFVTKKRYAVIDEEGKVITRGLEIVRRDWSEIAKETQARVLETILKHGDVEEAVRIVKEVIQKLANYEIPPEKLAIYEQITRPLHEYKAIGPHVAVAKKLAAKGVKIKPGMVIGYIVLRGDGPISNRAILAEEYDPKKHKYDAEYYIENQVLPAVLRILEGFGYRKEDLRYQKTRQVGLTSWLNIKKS
- assay_summary: fluorescence anisotropy; 20 mM Tris-HCl pH 8.5, 10 mM KCl, 10 mM (NH4)2SO4 (ionic strength 40); 10 nM Hex primer-template; rest of buffer and temperature not in material
- condition_parameters: protein: recombinant; label: 5'-hexachlorofluorescein on primer (strand 1); 5' overhang 20 nt on template (strand 2)
pKd: −log10 of the molar value.
reported_metric: pKd

> print(dat)
                                     binder  reported.metric  recorded.value
1  Hex primer-template (24/44) (dsDNA) DNA 1: GGGGATCCTCTAGAGTCGACCTGC DNA 2: GGAGACAAGCTTGCTTGCCAGCAGGTCGACTCTAGAGGATCCCC              pKd            7.15
